For each of the compounds below, state its Survivors.
System: HCT116 carcinoma
Conditions: number of 5 mice; i.v. qd x 1 at MTD, Day 60; doses as in E3
A bare number is all that is needed in reply.

Q: Please tell me: Survivors of `CCCC(=O)O[C@H]1C(=O)[C@@]2(C)[C@H]([C@H](OC(=O)c3ccccc3)[C@]3(O)C[C@H](OC(=O)[C@H](O)[C@@H](NC(=O)OC(C)(C)C)c4ccsc4)C(C)=C1C3(C)C)[C@]1(OC(C)=O)CO[C@@H]1C[C@@H]2O` , system HCT116 carcinoma?
Ans: 5

Q: Survivors of `CCCC(=O)O[C@H]1C(=O)[C@@]2(C)[C@H]([C@H](OC(=O)c3ccccc3)[C@]3(O)C[C@H](OC(=O)[C@H](O)[C@@H](NC(=O)OC(C)(C)C)c4cccs4)C(C)=C1C3(C)C)[C@]1(OC(C)=O)CO[C@@H]1C[C@@H]2O` on HCT116 carcinoma?
Ans: 5

Q: Missing value: Survivors, HCT116 carcinoma, entry `CCC(=O)O[C@H]1C(=O)[C@@]2(C)[C@H]([C@H](OC(=O)c3ccccc3)[C@]3(O)C[C@H](OC(=O)[C@H](O)[C@@H](NC(=O)c4ccccc4)c4ccco4)C(C)=C1C3(C)C)[C@]1(OC(C)=O)CO[C@@H]1C[C@@H]2O` . Fill in?
Ans: 4

Q: Query the reported Survivors for HCT116 carcinoma; item: `CCCC(=O)O[C@H]1C(=O)[C@@]2(C)[C@H]([C@H](OC(=O)c3ccccc3)[C@]3(O)C[C@H](OC(=O)[C@H](O)[C@H](C=C(C)C)NC(=O)OC(C)(C)C)C(C)=C1C3(C)C)[C@]1(OC(C)=O)CO[C@@H]1C[C@@H]2O`
Ans: 5

###

Record form. Attribute: MDS (n). Fill in for each entry.
Test system: Panc-1 pancreatic carcinoma
Assay: In vivo evaluation against Panc-1 human pancreatic carcinoma (Example 17)
Details: mean days of survival until neoplasm reached 1.5 g; i.v. qd x 1; mg/kg: Taxol 36, 0499 77, 0503 72.6, 0670 123.1, 0706 107.6, 0838 72.6, 0854 76.9; 6 mice/group; terminated Day 60

Q: Could you share which MDS (n) value was measured for `CCC(=O)O[C@H]1C(=O)[C@@]2(C)[C@H]([C@H](OC(=O)c3ccccc3)[C@]3(O)C[C@H](OC(=O)[C@H](O)[C@@H](NC(=O)c4ccccc4)c4ccoc4)C(C)=C1C3(C)C)[C@]1(OC(C)=O)CO[C@@H]1C[C@@H]2O` ?
Ans: 51.2 ± 5.9 (2) days

Q: Could you share which MDS (n) value was measured for `CC(=O)O[C@@]12CO[C@@H]1C[C@H](O)[C@@]1(C)C(=O)[C@H](OC(=O)C3CC3)C3=C(C)[C@@H](OC(=O)[C@H](O)[C@H](C=C(C)C)NC(=O)OC(C)(C)C)C[C@@](O)([C@@H](OC(=O)c4ccccc4)[C@H]21)C3(C)C` ?
Ans: 54.2 ± 0.9 (2) days

Q: Item under review: `CCC(=O)O[C@H]1C(=O)[C@@]2(C)[C@H]([C@H](OC(=O)c3ccccc3)[C@]3(O)C[C@H](OC(=O)[C@H](O)[C@H](C=C(C)C)NC(=O)OC(C)(C)C)C(C)=C1C3(C)C)[C@]1(OC(C)=O)CO[C@@H]1C[C@@H]2O` . Reported MDS (n)?
Ans: 56.1 ± 1.0 (2) days

Q: Please report the recorded MDS (n) for `CCC(=O)O[C@H]1C(=O)[C@@]2(C)[C@H]([C@H](OC(=O)c3ccccc3)[C@]3(O)C[C@H](OC(=O)[C@H](O)[C@@H](NC(=O)OC(C)(C)C)c4ccccn4)C(C)=C1C3(C)C)[C@]1(OC(C)=O)CO[C@@H]1C[C@@H]2O` .
Ans: 52.5 ± 2.1 (3) days

###

Tested on: A375 melanoma
Conditions: number of mice; i.v. qd x 1 at estimated MTD (Taxol 24 mg/kg, Taxotere 70 mg/kg); 6 mice/group (Taxotere 7); Day 60
Description: Dosing was initiated on Day 1. […] Taxotere was given i.v. on a qd x 1 schedule at a dose of 70 mg/kg. […] The study was terminated on Day 60. Treatment groups are detailed in Table 9.
Field: Stable Disease. Provide a value for each of the compounds that follow.
# respond with the number and nothing more

Q: # query: Stable Disease of entry CC(=O)O[C@@]12CO[C@@H]1C[C@H](O)[C@@]1(C)C(=O)[C@H](O)C3=C(C)[C@@H](OC(=O)[C@H](O)[C@@H](NC(=O)OC(C)(C)C)c4ccccc4)C[C@@](O)([C@@H](OC(=O)c4ccccc4)[C@H]21)C3(C)C [Taxotere, docetaxel, reference compound]
Ans: 0

Q: For the compound `CCC(=O)O[C@H]1C(=O)[C@@]2(C)[C@H]([C@H](OC(=O)c3ccccc3)[C@]3(O)C[C@H](OC(=O)[C@H](O)[C@H](C=C(C)C)NC(=O)OC(C)(C)C)C(C)=C1C3(C)C)[C@]1(OC(C)=O)CO[C@@H]1C[C@@H]2O` , what Stable Disease is on record?
Ans: 1

Q: Given `CC(=O)O[C@@]12CO[C@@H]1C[C@H](O)[C@@]1(C)C(=O)[C@H](OC(=O)C3CC3)C3=C(C)[C@@H](OC(=O)[C@H](O)[C@H](C=C(C)C)NC(=O)OC(C)(C)C)C[C@@](O)([C@@H](OC(=O)c4ccccc4)[C@H]21)C3(C)C` , state its recorded Stable Disease.
Ans: 0

Q: Quick check: Stable Disease of CC(=O)O[C@H]1C(=O)[C@@]2(C)[C@H]([C@H](OC(=O)c3ccccc3)[C@]3(O)C[C@H](OC(=O)[C@H](O)[C@@H](NC(=O)c4ccccc4)c4ccccc4)C(C)=C1C3(C)C)[C@]1(OC(C)=O)CO[C@@H]1C[C@@H]2O [Taxol, paclitaxel, reference compound] ?
Ans: 0

Q: Look at this compound and give its reported Stable Disease. `CCC(=O)O[C@H]1C(=O)[C@@]2(C)[C@H]([C@H](OC(=O)c3ccccc3)[C@]3(O)C[C@H](OC(=O)[C@H](O)[C@@H](NC(=O)OC(C)(C)C)c4ccccn4)C(C)=C1C3(C)C)[C@]1(OC(C)=O)CO[C@@H]1C[C@@H]2O`
Ans: 0

###

System: A2780 ovarian carcinoma
Details: number of mice; i.v. qd x 1 at estimated MTD (Taxol 24 mg/kg, Taxotere 70 mg/kg, 0983 72.6 mg/kg); 5 mice/group (Taxotere 6)
Readout Type: Toxic Deaths
I'd appreciate a reply containing only the number, no unit.

Q: What value of Toxic Deaths has been recorded for this entry: `CCC(=O)O[C@H]1C(=O)[C@@]2(C)[C@H]([C@H](OC(=O)c3ccccc3)[C@]3(O)C[C@H](OC(=O)[C@H](O)[C@@H](NC(=O)c4ccccc4)C4CC4)C(C)=C1C3(C)C)[C@]1(OC(C)=O)CO[C@@H]1C[C@@H]2O`
Ans: 0

Q: Field request: Toxic Deaths | item: `CCC(=O)O[C@H]1C(=O)[C@@]2(C)[C@H]([C@H](OC(=O)c3ccccc3)[C@]3(O)C[C@H](OC(=O)[C@H](O)[C@@H](NC(=O)OC(C)(C)C)c4ccccn4)C(C)=C1C3(C)C)[C@]1(OC(C)=O)CO[C@@H]1C[C@@H]2O`
Ans: 0

Q: Endpoint output: Toxic Deaths of `CCC(=O)O[C@H]1C(=O)[C@@]2(C)[C@H]([C@H](OC(=O)c3ccccc3)[C@]3(O)C[C@H](OC(=O)[C@H](O)[C@@H](NC(=O)c4ccccc4)c4cccs4)C(C)=C1C3(C)C)[C@]1(OC(C)=O)CO[C@@H]1C[C@@H]2O` . Value?
Ans: 0

Q: Which Toxic Deaths reading was recorded for the molecule `CCC(=O)O[C@H]1C(=O)[C@@]2(C)[C@H]([C@H](OC(=O)c3ccccc3)[C@]3(O)C[C@H](OC(=O)[C@H](O)[C@@H](NC(=O)OC(C)(C)C)c4ccco4)C(C)=C1C3(C)C)[C@]1(OC(C)=O)CO[C@@H]1C[C@@H]2O` ?
Ans: 0

Q: I'd like to know its Toxic Deaths. The molecule in question is `CC(=O)O[C@@]12CO[C@@H]1C[C@H](O)[C@@]1(C)C(=O)[C@H](OC(=O)C3CC3)C3=C(C)[C@@H](OC(=O)[C@H](O)[C@@H](NC(=O)c4ccccc4)c4ccco4)C[C@@](O)([C@@H](OC(=O)c4ccccc4)[C@H]21)C3(C)C`
Ans: 1

Q: Query: Toxic Deaths; subject: CC(=O)O[C@H]1C(=O)[C@@]2(C)[C@H]([C@H](OC(=O)c3ccccc3)[C@]3(O)C[C@H](OC(=O)[C@H](O)[C@@H](NC(=O)c4ccccc4)c4ccccc4)C(C)=C1C3(C)C)[C@]1(OC(C)=O)CO[C@@H]1C[C@@H]2O [Taxol, paclitaxel, reference compound]
Ans: 0

Q: Entry under review: CC(=O)O[C@@]12CO[C@@H]1C[C@H](O)[C@@]1(C)C(=O)[C@H](O)C3=C(C)[C@@H](OC(=O)[C@H](O)[C@@H](NC(=O)OC(C)(C)C)c4ccccc4)C[C@@](O)([C@@H](OC(=O)c4ccccc4)[C@H]21)C3(C)C [Taxotere, docetaxel, reference compound] . Reported Toxic Deaths?
Ans: 0

Q: If you can, please state the reported Toxic Deaths value of `CCCC(=O)O[C@H]1C(=O)[C@@]2(C)[C@H]([C@H](OC(=O)c3ccccc3)[C@]3(O)C[C@H](OC(=O)[C@H](O)[C@H](C=C(C)C)NC(=O)OC(C)(C)C)C(C)=C1C3(C)C)[C@]1(OC(C)=O)CO[C@@H]1C[C@@H]2O` .
Ans: 1

Q: Entry `CCCC(=O)O[C@H]1C(=O)[C@@]2(C)[C@H]([C@H](OC(=O)c3ccccc3)[C@]3(O)C[C@H](OC(=O)[C@H](O)[C@@H](NC(=O)OC(C)(C)C)c4ccco4)C(C)=C1C3(C)C)[C@]1(OC(C)=O)CO[C@@H]1C[C@@H]2O` : reported Toxic Deaths = ?
Ans: 5
